target: recombinant α1b-adrenoceptor (Homo sapiens); assay: Radioligand binding ([3H]prazosin) to cloned α1b adrenoceptor; conditions: read-out: Affinity (Ki) α1b
Sequence (P35368 whole entry): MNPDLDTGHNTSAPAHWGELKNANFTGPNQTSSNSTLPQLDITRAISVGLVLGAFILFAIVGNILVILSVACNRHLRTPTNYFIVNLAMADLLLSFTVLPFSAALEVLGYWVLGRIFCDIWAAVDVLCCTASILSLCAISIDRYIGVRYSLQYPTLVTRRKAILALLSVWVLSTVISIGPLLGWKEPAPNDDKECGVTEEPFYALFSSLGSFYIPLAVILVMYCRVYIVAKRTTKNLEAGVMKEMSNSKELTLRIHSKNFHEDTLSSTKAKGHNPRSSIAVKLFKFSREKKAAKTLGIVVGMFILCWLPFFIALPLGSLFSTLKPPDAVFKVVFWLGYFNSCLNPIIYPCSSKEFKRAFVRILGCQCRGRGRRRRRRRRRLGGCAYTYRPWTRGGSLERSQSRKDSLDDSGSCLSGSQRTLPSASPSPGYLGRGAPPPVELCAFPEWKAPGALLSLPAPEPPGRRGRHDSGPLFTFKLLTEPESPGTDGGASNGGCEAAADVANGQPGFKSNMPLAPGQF
METRIC: pKi
Answers are plain numbers, as −log10 of the molar value.

Examples from the recorded data:
COc1ccccc1N1CCN(CCCNC(=O)c2csc3c(=O)cc(-c4ccccc4)oc23)CC1 = 8.12
O=C(NCCCN1CCN(c2ccccc2OCC(F)(F)F)CC1)c1csc2c(=O)cc(-c3ccccc3)oc12 = 8.36
COc1ccccc1N1CCN(CCCNC(=O)c2csc3c(=O)cc(C(F)(F)F)oc23)CC1 = 7.64
COc1ccc(Cl)cc1N1CCN(CCCNC(=O)c2csc3c(=O)cc(-c4ccccc4)oc23)CC1 = 8.60
O=C(NCCCN1CCN(c2ccc(F)cc2OCC(F)(F)F)CC1)c1csc2c(=O)cc(-c3ccccc3)oc12 = 8.46

Then this compound:
Lab entry: recombinant α1b-adrenoceptor (Homo sapiens) assay, compound COc1ccc(OCC(F)(F)F)cc1N1CCN(CCCNC(=O)c2csc3c(=O)cc(-c4ccccc4)oc23)CC1 , pKi = 7.41
